Values were extracted from patent US9200265B2.

- target under test: CocE (Rhodococcus sp., UniProt Q9L9D7)
- Construct: generating a full-length CocE gene encoding the T172R mutation; His6 (C)
- experiment notes: Stabilization against 37° C.-induced formation of high molecular weight CocE aggregates (gel)
- Description: Plasmids containing the mutations were transformed into E. coli BL21 cells and IPTG-induced enzyme was purified on Ni-Agarose. Expressed proteins were then tested for enzymatic activity and for thermostability at 37° C. Enzyme activity was measured using the spectrophotometric assay as described in Example 1. […] Additionally, the nature of the thermo-instability of both the wild-type and T172R mutant was analyzed by polyacrylamide gel electrophoresis under denaturing and non-denaturing conditions. […]
assay endpoint: EC50 (nM)

1) OB(O)c1ccccc1    200

###

- target under test: CocE (Rhodococcus sp.)
- Construct: generating a full-length CocE gene encoding the T172R mutation; His6 (C); made in house; host or cells: E. coli (pET-22b(+))
- experiment notes: Inhibition of CocE (cleavage of 4-nitrophenyl acetate)
- Format: biochemical, Rhodococcus sp. MB 1
Entries and their measured Ki follow.
assay endpoint: Ki (µM)

1) OB(O)c1ccccc1 [Phenylboronic acid]    0.25
2) O=C(O)c1ccccc1 [Benzoic acid]    310
